# experimental-details: Belinostat plasma pharmacokinetics in patients (HPLC-MS/MS, non-compartmental)
# Assay type: in vivo, human
# measurement-parameters: human, plasma, iv, 1000 mg, belinostat 1000 mg m^−2 i.v., day 1, 7 patients, mean±s.d.
value-kind: half-life (h)

1. O=C(/C=C/c1cccc(S(=O)(=O)Nc2ccccc2)c1)NO [belinostat] ... 1

---

# experimental-details: Belinostat plasma pharmacokinetics in patients (HPLC-MS/MS, non-compartmental)
# Format: in vivo, human
# measurement-parameters: human, plasma, iv, 600 mg, belinostat 600 mg m^−2 i.v., days 1 and 3, 12 patients, mean±s.d.
value-kind: AUC(0-inf) (µM·h)

1. O=C(/C=C/c1cccc(S(=O)(=O)Nc2ccccc2)c1)NO [belinostat] ... 28.4

---

# experimental-details: Belinostat plasma pharmacokinetics in patients (HPLC-MS/MS, non-compartmental)
# Type: in vivo, human
# measurement-parameters: human, plasma, iv, 1000 mg, belinostat 1000 mg m^−2 i.v., day 1, 7 patients, mean±s.d.
value-kind: AUC (µM·h)

1) O=C(/C=C/c1cccc(S(=O)(=O)Nc2ccccc2)c1)NO [belinostat] ... 102

---

# experimental-details: Belinostat plasma pharmacokinetics in patients (HPLC-MS/MS, non-compartmental)
# Type: in vivo, human
# measurement-parameters: human, plasma, iv, 600 mg, belinostat 600 mg m^−2 i.v., days 1 and 3, 12 patients, mean±s.d.
value-kind: half-life

1. O=C(/C=C/c1cccc(S(=O)(=O)Nc2ccccc2)c1)NO [belinostat] ... 1.7 h

---

# experimental-details: Paclitaxel plasma pharmacokinetics in patients after belinostat (LC-MS/MS, non-compartmental)
# Format: in vivo, human
# measurement-parameters: human, plasma, iv, paclitaxel 175 mg m^−2 i.v. day 3 after belinostat 600 mg m^−2, 6 patients, mean±s.d.
value-kind: AUC (µM·h)

1. CC(=O)O[C@H]1C(=O)[C@@]2(C)[C@H]([C@H](OC(=O)c3ccccc3)[C@]3(O)C[C@H](OC(=O)[C@H](O)[C@@H](NC(=O)c4ccccc4)c4ccccc4)C(C)=C1C3(C)C)[C@]1(OC(C)=O)CO[C@@H]1C[C@@H]2O [paclitaxel] ... 14

---

# experimental-details: Paclitaxel plasma pharmacokinetics in patients after belinostat (LC-MS/MS, non-compartmental)
# Type: in vivo, human
# measurement-parameters: human, plasma, iv, paclitaxel 175 mg m^−2 i.v. day 3 after belinostat 800 mg m^−2, 3 patients, mean±s.d.
value-kind: AUC (µM·h)

1. CC(=O)O[C@H]1C(=O)[C@@]2(C)[C@H]([C@H](OC(=O)c3ccccc3)[C@]3(O)C[C@H](OC(=O)[C@H](O)[C@@H](NC(=O)c4ccccc4)c4ccccc4)C(C)=C1C3(C)C)[C@]1(OC(C)=O)CO[C@@H]1C[C@@H]2O ... 12.8

---

# experimental-details: Paclitaxel plasma pharmacokinetics in patients after belinostat (LC-MS/MS, non-compartmental)
# Type: in vivo, human
# measurement-parameters: human, plasma, iv, paclitaxel 175 mg m^−2 i.v. day 3 after belinostat 600 mg m^−2, 6 patients, mean±s.d.
value-kind: AUC(0-inf)

1) CC(=O)O[C@H]1C(=O)[C@@]2(C)[C@H]([C@H](OC(=O)c3ccccc3)[C@]3(O)C[C@H](OC(=O)[C@H](O)[C@@H](NC(=O)c4ccccc4)c4ccccc4)C(C)=C1C3(C)C)[C@]1(OC(C)=O)CO[C@@H]1C[C@@H]2O ... 14.7 µM·h

---

# experimental-details: Paclitaxel plasma pharmacokinetics in patients after belinostat (LC-MS/MS, non-compartmental)
# Assay type: in vivo, human
# measurement-parameters: human, plasma, iv, paclitaxel 175 mg m^−2 i.v. day 3 after belinostat 800 mg m^−2, 3 patients, mean±s.d.
value-kind: half-life (h)

1) CC(=O)O[C@H]1C(=O)[C@@]2(C)[C@H]([C@H](OC(=O)c3ccccc3)[C@]3(O)C[C@H](OC(=O)[C@H](O)[C@@H](NC(=O)c4ccccc4)c4ccccc4)C(C)=C1C3(C)C)[C@]1(OC(C)=O)CO[C@@H]1C[C@@H]2O ... 5.5

---

# experimental-details: Belinostat plasma pharmacokinetics in patients (HPLC-MS/MS, non-compartmental)
# Assay type: in vivo, human
# measurement-parameters: human, plasma, iv, 800 mg, belinostat 800 mg m^−2 i.v., days 1 and 3, 4 patients, mean±s.d.
# Procedure: Belinostat and paclitaxel levels were determined in lithium-heparinised plasma using validated solid-phase extraction high performance liquid chromatograpgy (HPLC)-tandem mass spectrometric detection (MS/MS) methods (Covance, Indianapolis, IN, USA). […]
value-kind: AUC (µM·h)

1) O=C(/C=C/c1cccc(S(=O)(=O)Nc2ccccc2)c1)NO ... 35.5

---

# experimental-details: Belinostat plasma pharmacokinetics in patients (HPLC-MS/MS, non-compartmental)
# Format: in vivo, human
# measurement-parameters: human, plasma, iv, 1000 mg, belinostat 1000 mg m^−2 i.v., day 3, 7 patients, mean±s.d.
value-kind: half-life

1) O=C(/C=C/c1cccc(S(=O)(=O)Nc2ccccc2)c1)NO ... 2.7 h

---

# experimental-details: Belinostat plasma pharmacokinetics in patients (HPLC-MS/MS, non-compartmental)
# Assay type: in vivo, human
# measurement-parameters: human, plasma, iv, 600 mg, belinostat 600 mg m^−2 i.v., days 1 and 3, 12 patients, mean±s.d.
value-kind: AUC (µM·h)

1. O=C(/C=C/c1cccc(S(=O)(=O)Nc2ccccc2)c1)NO ... 28.4

---

# experimental-details: Paclitaxel plasma pharmacokinetics in patients after belinostat (LC-MS/MS, non-compartmental)
# Type: in vivo, human
# measurement-parameters: human, plasma, iv, paclitaxel 175 mg m^−2 i.v. day 3 after belinostat 600 mg m^−2, 6 patients, mean±s.d.
value-kind: Cmax

1) CC(=O)O[C@H]1C(=O)[C@@]2(C)[C@H]([C@H](OC(=O)c3ccccc3)[C@]3(O)C[C@H](OC(=O)[C@H](O)[C@@H](NC(=O)c4ccccc4)c4ccccc4)C(C)=C1C3(C)C)[C@]1(OC(C)=O)CO[C@@H]1C[C@@H]2O [paclitaxel] ... 3.9 µM

---

# experimental-details: Belinostat plasma pharmacokinetics in patients (HPLC-MS/MS, non-compartmental)
# Format: in vivo, human
# measurement-parameters: human, plasma, iv, 800 mg, belinostat 800 mg m^−2 i.v., days 1 and 3, 4 patients, mean±s.d.
value-kind: Cmax (µM)

1) O=C(/C=C/c1cccc(S(=O)(=O)Nc2ccccc2)c1)NO [belinostat] ... 70.8

---

# experimental-details: Belinostat plasma pharmacokinetics in patients (HPLC-MS/MS, non-compartmental)
# Type: in vivo, human
# measurement-parameters: human, plasma, iv, 1000 mg, belinostat 1000 mg m^−2 i.v., day 3, 7 patients, mean±s.d.
value-kind: AUC (µM·h)

1) O=C(/C=C/c1cccc(S(=O)(=O)Nc2ccccc2)c1)NO ... 88.8

---

# experimental-details: Belinostat plasma pharmacokinetics in patients (HPLC-MS/MS, non-compartmental)
# Format: in vivo, human
# measurement-parameters: human, plasma, iv, 1000 mg, belinostat 1000 mg m^−2 i.v., day 1, 7 patients, mean±s.d.
# Description: Belinostat and paclitaxel levels were determined in lithium-heparinised plasma using validated solid-phase extraction high performance liquid chromatograpgy (HPLC)-tandem mass spectrometric detection (MS/MS) methods (Covance, Indianapolis, IN, USA). […]
value-kind: Cmax (µM)

1) O=C(/C=C/c1cccc(S(=O)(=O)Nc2ccccc2)c1)NO ... 128

---

# experimental-details: Belinostat plasma pharmacokinetics in patients (HPLC-MS/MS, non-compartmental)
# Type: in vivo, human
# measurement-parameters: human, plasma, iv, 800 mg, belinostat 800 mg m^−2 i.v., days 1 and 3, 4 patients, mean±s.d.
value-kind: half-life (h)

1) O=C(/C=C/c1cccc(S(=O)(=O)Nc2ccccc2)c1)NO ... 1.7
